MEASUREMENT_DESCRIPTION: In vivo kinetics experiment (radioactivity distribution)
Parameters: species or system Wistar male rat
ASSAY_CONDITIONS: 60 min after administration; rat i.v.; mean ± SD
Exam item: assign criterion met to entries whose Radioactivity distribution Lung is below 0.6 % ID/g and criterion not met to entries at or above 0.6 % ID/g. Note that a value of exactly 0.6 % ID/g receives criterion not met.

INSERT INTO assay_data (molecule, class_label) VALUES
  ('FCCn1c(-c2cncc(Cn3cncc3[123I])c2)nc2cc(F)c(Cl)cc21 [[^123I] 610]', 'criterion met'),
  ('FCCn1c(-c2cncc(Cn3ccnc3)c2)nc2ccc([123I])cc21 [[^123I] 604]', 'criterion not met'),
  ('COC(=O)c1cncn1[C@H](C)c1ccc(I)cc1 [[^123I] IMTO, (R)-[^123I]iodometomidate, reference compound]', 'criterion not met'),
  ('COc1cc([123I])cc2c1nc(-c1cncc(Cn3ccnc3)c1)n2C1CC1 [[^123I] 609]', 'criterion met'),
  ('CCn1c(-c2cncc(Cn3ccnc3)c2)nc2ccc([123I])cc21 [[^123I] 608]', 'criterion not met'),
  ('Cn1c(-c2cncc(Cn3ccnc3)c2)nc2ccc([123I])cc21 [[^123I] 607]', 'criterion not met'),
  ('Fc1cc2nc(-c3cncc(Cn4ccnc4)c3)n(Cc3ccc([123I])cc3)c2cc1Cl [[^123I] 605]', 'criterion met');
